Data origin, for the record: paper PMC9482650

Can you tell me pKd for the items I'm about to list?
target: MAGI2_6, Q86UL8; assay: holdup assay; design: key: below the threshold = too weak to quantify, mostly under pKd 3.1 to 4; conditions: plain residues with an end cap or a label only (N-terminal biotin on a linker: ado-ado)
Sequence (Q86UL8 1141-1229): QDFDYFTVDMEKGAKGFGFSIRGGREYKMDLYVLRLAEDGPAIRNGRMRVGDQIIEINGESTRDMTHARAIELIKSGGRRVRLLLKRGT
Numbers only.

Please supply pKd for each of the following items, keeping them in order.
1. GTMFLRETSL [GUCY1A2, P33402]
2. DYSNLRETDI [ADRA1D, P25100]

Output line:
1: 4.51; 2: 4.31
